Each recorded value in this set is attributed to BindingDB's records for patent US20250313563.

# Target System: Glycogen synthase kinase-3 beta (Homo sapiens)
# Sequence (P49841 whole entry): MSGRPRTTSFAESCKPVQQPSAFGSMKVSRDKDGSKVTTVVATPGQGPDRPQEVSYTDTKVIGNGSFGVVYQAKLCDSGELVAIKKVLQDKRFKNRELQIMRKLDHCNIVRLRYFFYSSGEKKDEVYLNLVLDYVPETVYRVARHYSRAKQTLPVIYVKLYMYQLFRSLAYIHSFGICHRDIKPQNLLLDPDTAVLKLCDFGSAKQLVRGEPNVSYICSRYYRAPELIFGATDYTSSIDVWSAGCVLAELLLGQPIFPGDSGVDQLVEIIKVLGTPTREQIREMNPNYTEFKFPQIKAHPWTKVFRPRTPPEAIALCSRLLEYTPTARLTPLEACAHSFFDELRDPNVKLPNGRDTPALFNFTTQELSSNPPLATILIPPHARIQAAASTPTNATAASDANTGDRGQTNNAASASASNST
# Procedure Details: TR-FRET Assay
pIC50: −log10 of the molar value.
Readout Name: pIC50

Compound	pIC50
CC[C@]1(c2cccc([C@H](C)c3ncccn3)c2)C2=CN=NC2NC2=C1C(=O)CC(C)(C)C2 (stereo partly drawn)	5.30 to 6.00
CCC1(c2cccc(-c3cnn(C)c3)c2)C2=CN=NC2NC2=C1C(=O)CC(C)(C)C2 (stereo not drawn)	6.00 to 7.00

// below: pIC50 requested for another compound
Quick check: pIC50 on Glycogen synthase kinase-3 beta (Homo sapiens), item COc1cc(S(=O)(=O)N2CCC3(CC2)C2=C(N=NC2)NC2=C3C(=O)CC(C)(C)C2)ccc1Cl ?
> 7.00
